Reference for the values: ChEMBL document CHEMBL1201862

System: U-251
PROTOCOL DETAILS: NCI tumour cell line growth inhibition, 48 h
Calls of active or inactive are those of the source. No stated cut-off is given here; in the data, active = GI50 up to about 1.1 µM and inactive = higher.
Below, each entry is listed alongside its reported GI50.
MEASUREMENT KIND: GI50

| MOLECULE | VALUE MEASURED |
| --- | --- |
| CCCCCC(O)(CCCCC)CCCCCCCCC1=C(O)C(=O)c2ccccc2C1=O | 7.73 µM (inactive) |
| COc1ccc2c(C)cc(C)nc2n1 | > 100 µM (inactive) |
| O=C(c1ccc(Cl)cc1)N(C(=O)N1CCCCC1)c1ccccc1 | > 100 µM (inactive) |
| Clc1nncc2sc(-c3ccccc3)nc12 | 15 µM (inactive) |
| COC(=O)c1c(C(=O)OC)c2ccc(-c3ccc(Cl)cc3)nn2c1C(=O)c1ccc([N+](=O)[O-])cc1 | > 100 µM (inactive) |
| CNC(=S)c1nnsc1N | > 100 µM (inactive) |
| CN(CC(=O)O)c1ccc(/C=C/c2ccnc3ccccc23)cc1 | 22.8 µM (inactive) |
| c1ccc2c(c1)NC(C1OC3CCCN3C1C1Nc3ccccc3S1)S2 (centres undefined) | 80.2 µM (inactive) |
| C=C1CCN2CC[C@@H](OC(=O)/C(C)=C\C)[C@@H]12 | > 100 µM (inactive) |
| O[C@]12c3ccccc3C1CCCC2N1CCOCC1 (some centres undefined) | > 100 µM (inactive) |
| COc1nc(C#CC(C)(C)C)nc(OC)n1 | 39.2 µM (inactive) |
| COc1cc2c3c(c1OC)Oc1ccc(cc1)CC1c4c(cc(OC)c(OC)c4Oc4ccc(cc4)CC3N(C)CC2)CCN1C (centres undefined) | 15.8 µM (inactive) |
| Cc1c2cnccc2c(C)c2c1[nH]c1ccc(O)cc12 | 2.02 µM (inactive) |
| O=C1OC(=O)C2=C1C(c1cccs1)C=C(c1cccnc1)N2c1ccncc1 (centres undefined) | 16.9 µM (inactive) |

----------
System: HT-29
PROTOCOL DETAILS: NCI tumour cell line growth inhibition, 48 h
Activity calls are given as the source filed them. Cut-off read from the data, not from the text of the source: active = GI50 up to about 1.1 µM and inactive = higher.
MEASUREMENT KIND: GI50

| MOLECULE | VALUE MEASURED |
| --- | --- |
| CN(/N=C(\C(=O)O)c1ccccc1)C1=NCCCCN1 | > 100 µM (inactive) |
| C1=N\c2ccc(cc2)-c2ccc(cc2)/N=C\c2ccc(cc2)OCc2cccc(n2)COc2ccc/1cc2 | > 100 µM (inactive) |
| O=C(c1ccc(Cl)cc1)c1ccc(OCCCOc2ccc(C(=O)c3ccc(Cl)cc3)cc2Cl)c(Cl)c1 | > 100 µM (inactive) |
| COc1ccc2c(c1)/C(=C\c1c(-c3ccccc3)nc3n1CCS3)C(=O)N2 | 3.71 µM (inactive) |
| Nc1nc(O)c([N+](=O)[O-])c(NCCOCP(=O)(O)O)n1 | > 100 µM (inactive) |
| CNS(=O)(=O)NN(C)S(=O)(=O)c1ccc(C)cc1 | > 100 µM (inactive) |
| CCOP1(=O)CC(C)=C(Cl)C(OC)C1 (stereo unspecified) | > 100 µM (inactive) |
| Cc1ccc(C2=C(c3ccccc3)C(Br)(c3ccccc3)C(c3ccccc3)=C2c2ccc(C)cc2)cc1 | > 100 µM (inactive) |
| O=C(/C=C/c1ccccc1)CCc1c(O)c2ccccc2oc1=O | > 100 µM (inactive) |
| O=C1CCC2(c3ccc(Cl)cc3)Nc3ccccc3N12 (stereo unspecified) | > 100 µM (inactive) |
| CCOc1cc(/C=C/C=C/c2ccc(N(C)C)cc2)[s+]c2ccccc12 | 35.8 µM (inactive) |
| C/C=C(\C)[C@@H](O)C(=O)O[C@@H]1CC(C(C)(C)O)[C@](C)(CCC(=O)OC)[C@H]2[C@H](OC(=O)[C@H](O)[C@H](C)CC)C[C@]3(C)C(=CC[C@H]3[C@H]3CO[C@H](C=C(C)C)C3)[C@]12C (stereo partly specified) | 19 µM (inactive) |
| CC(C)=C1C(=O)c2c(Cl)sc(Cl)c2C1=O | 28.8 µM (inactive) |
| Cc1nccn1S(=O)(=O)c1ccc(Br)cc1Br | 29.1 µM (inactive) |
| Cc1ccccc1C(=O)c1ccccc1O | > 100 µM (inactive) |
| COc1cccc(C2SCc3nc4ccccc4n32)c1 (stereo unspecified) | 41.9 µM (inactive) |
